- protocol_description: Quantitative High-Throughput drug screen in 47 multiple myeloma cell lines against the NCATS MIPE library collection: AMO1_DSMZ cell viability assay (AID 1918927; further: nearly all actives have a fitted effect of over 30% in size)
- conditions_used: AMO1 myeloma cells viability, CellTiter-Glo ATP luminescence, 48 h; series mostly up to 45.8 µM
Records with an inconclusive call do not appear. Activity calls are given as the source filed them. The call rests on the fitted dose curve; in most records, active means well fitted cell-killing curve with a large enough effect; inconclusive means small, poorly fitted or top-dose-only effect, or effect the other way; inactive means no such curve, though single readings can be large or run the other way.
Outcomes: 1 (active), -1 (inactive)

>>> assigned_class("CCOP(=O)(OCC)C(C)NC(=O)N(CCCl)N=O (centres undefined)")
-1
>>> assigned_class("COC1=CC(C)=C[C@@H](C)[C@@H](O)[C@@H](C)CC(C)=CC=C[C@H](OC)[C@H]([C@@H](C)[C@@H](O)[C@H](C)[C@@]2(O)C[C@@H](O)[C@H](C)[C@@H](C(C)C)O2)OC1=O")
1
>>> assigned_class("C=C1C[C@H]2[C@H]3CCC(=O)[C@@]3(C)CC[C@@H]2[C@@]2(C)C=CC(=O)C=C12")
1
>>> assigned_class("CC[C@@H](C(N)=O)N1CCCC1=O")
-1
>>> assigned_class("COc1cc([C@@H]2c3cc4c(cc3[C@@H](O)C3COC(=O)C32)OCO4)cc(OC)c1O (some centres undefined)")
1
>>> assigned_class("CCN(CC)C(=O)c1ccc(C2=CC3(CCNCC3)Oc3cccc(O)c32)cc1")
-1
>>> assigned_class("CCN1CCN(C(=O)Cc2ccc(Nc3ncc(F)c(Nc4ccc(C(=O)Nc5ccccc5Cl)cc4)n3)cc2)CC1")
1
>>> assigned_class("CC(=O)OCC1=C(C(=O)O)N2C(=O)[C@@H](N)[C@@H]2SC1")
1
>>> assigned_class("COc1ccc2c(c1)CN(C)CC2c1ccc(Cl)c(Cl)c1 (centres undefined)")
1
>>> assigned_class("COc1ccc2c(c1)[C@]13CCCCC1C(C2)N(C)CC3 (some centres undefined)")
-1
>>> assigned_class("O=[N+]([O-])c1ncc[nH]1")
-1
>>> assigned_class("CC[C@H]1C=CC=CC[C@@H](C)[C@H](O)[C@@](C)(O)C(=O)[C@@H](C)[C@H](O)[C@@H](C)C(=O)[C@@H](C)[C@H](O)[C@@H](C)C=CC(=O)O[C@@H]2[C@@H](C)[C@H](CC1)O[C@]1(CC[C@H](C)[C@H](C[C@@H](C)O)O1)[C@H]2C")
1
>>> assigned_class("N=c1c2c(-c3ccccc3)c(-c3ccccc3)n(Cc3ccccc3)c2ncn1C1CCC(O)CC1 (centres undefined)")
1
>>> assigned_class("CCNC(=O)C[C@@H]1N=C(c2ccc(Cl)cc2)c2cc(OC)ccc2-n2c(C)nnc21")
1
>>> assigned_class("C[C@]12CC[C@H]3[C@@H](CCC4=CC(=O)CC[C@@]43C)[C@H]1CC[C@H]2O")
-1
>>> assigned_class("CC1(N2CCC(n3c([C@@H]4CCCNC4)nc4ccccc43)CC2)CCCCCCC1")
1
>>> assigned_class("CN(C)NC(=O)CCC(=O)O")
-1
>>> assigned_class("Cc1[nH]nc2ccc(-c3cncc(OC[C@@H](N)Cc4c[nH]c5ccccc45)c3)cc12")
-1
>>> assigned_class("CCCCCC[C@H]1C(=O)O[C@H](C)[C@H](NC(=O)c2cccc(NC=O)c2O)C(=O)O[C@@H](C)[C@@H]1OC(=O)CC(C)C")
1
>>> assigned_class("O=S(=O)(F)Cc1ccccc1")
-1
>>> assigned_class("CN1[C@H]2CC(O)C[C@H]1[C@H]1O[C@H]12 (some centres undefined)")
-1
>>> assigned_class("NC1CC1c1ccccc1 (centres undefined)")
-1
>>> assigned_class("COc1cccc2c1[C@]13CCN(CC4CC4)[C@H](C2)[C@]1(OC)CCC(=O)C3")
-1
>>> assigned_class("CC(=Cc1csc(C)n1)[C@@H]1C[C@H]2O[C@]2(C)CCC[C@H](C)[C@@H](O)[C@@H](C)C(=O)C(C)(C)[C@@H](O)CC(=O)O1")
1
>>> assigned_class("CSCC[C@@H](NC(=O)[C@@H](Cc1ccccc1)NC(=O)CNC(=O)CNC(=O)[C@@H](N)Cc1ccc(O)cc1)C(=O)O")
-1
>>> assigned_class("COc1ccc2c(c[n+](C)c3c4cc5c(cc4ccc23)OCO5)c1OC")
1
>>> assigned_class("CC(=Cc1csc(C)n1)[C@@H]1C[C@H]2O[C@@H]2CCC[C@H](C)[C@@H](O)[C@@H](C)C(=O)C(C)(C)[C@@H](O)CC(=O)O1")
1
>>> assigned_class("O=c1cccc2n1CC1CNC[C@H]2C1")
1
>>> assigned_class("O=c1[nH]c2ccc(Cl)cc2c(N[C@@H]2CN3CCC2CC3)c1-c1nc2ccccc2[nH]1")
1
>>> assigned_class("CC(C)(C)c1cc(C=C(C#N)C#N)cc(Br)c1O")
1
>>> assigned_class("COc1cc2cc(c1Cl)N(C)C(=O)C[C@H](OC(=O)C(C)C)[C@]1(C)O[C@H]1[C@H](C)[C@@H]1C[C@@](O)(NC(=O)O1)[C@H](OC)C=CC=C(C)C2")
-1
>>> assigned_class("CC(C)N(CCNC(=O)CN1CCCC1=O)C(C)C")
-1
>>> assigned_class("O=C(Oc1ccc([N+](=O)[O-])cc1)N1CCN(Cc2cccc(Oc3ccccc3)c2)CC1")
-1
>>> assigned_class("O=C(Nc1ccncc1)C(=O)c1cn(Cc2ccc(Cl)cc2)c2ccccc12")
1
